# System: Zymoseptoria tritici
# test_description: Test B: wheat leaf blotch control on wheat seedlings
# Assay type: in vivo
# stated_conditions: 250 ppm test suspension (asterisk); wheat seedlings sprayed the day before inoculation; 100 = 100% disease control, 0 = none
# Description: General protocol for preparing test suspensions for Tests A-C: the test compounds were first dissolved in acetone in an amount equal to 3% of the final volume and then suspended at the desired concentration (in ppm) in acetone and purified water (50/50 mix by volume) containing 250 ppm of the surfactant PEG400 (polyhydric alcohol esters). The resulting test suspensions were then used in Tests A-C. The test solution was sprayed to the point of run-off on wheat seedlings. […]
Marks after values point to notes of the source that are not given here.
value_type: Test B disease control rating

>  <compound>
O=S1(=Nc2ccc(-c3noc(C(F)(F)F)n3)cc2)c2ccccc2-c2ccccc21 [Compound 38]

>  <reading>
1* %

$$$$
>  <compound>
CS(=O)(=Nc1ccc(-c2noc(C(F)(F)F)n2)cc1)c1ccccc1 (stereo not shown) [Compound 39]

>  <reading>
65* %

$$$$
>  <compound>
CCCS(C)(=O)=NCc1ccc(-c2noc(C(F)(F)F)n2)cc1 (stereo not shown) [Compound 46]

>  <reading>
1* %

$$$$

// next item, Test B disease control rating requested
Please report the recorded Test B disease control rating for CCCS(=O)(=NCc1ccc(-c2noc(C(F)(F)F)n2)cc1)c1c(F)c(F)c(F)c(F)c1F (stereo not shown) [Compound 37] .
15* %
